- SYSTEM UNDER TEST: DNA topoisomerase 1 (Homo sapiens) (UniProt P11387)
- Sequence (whole entry): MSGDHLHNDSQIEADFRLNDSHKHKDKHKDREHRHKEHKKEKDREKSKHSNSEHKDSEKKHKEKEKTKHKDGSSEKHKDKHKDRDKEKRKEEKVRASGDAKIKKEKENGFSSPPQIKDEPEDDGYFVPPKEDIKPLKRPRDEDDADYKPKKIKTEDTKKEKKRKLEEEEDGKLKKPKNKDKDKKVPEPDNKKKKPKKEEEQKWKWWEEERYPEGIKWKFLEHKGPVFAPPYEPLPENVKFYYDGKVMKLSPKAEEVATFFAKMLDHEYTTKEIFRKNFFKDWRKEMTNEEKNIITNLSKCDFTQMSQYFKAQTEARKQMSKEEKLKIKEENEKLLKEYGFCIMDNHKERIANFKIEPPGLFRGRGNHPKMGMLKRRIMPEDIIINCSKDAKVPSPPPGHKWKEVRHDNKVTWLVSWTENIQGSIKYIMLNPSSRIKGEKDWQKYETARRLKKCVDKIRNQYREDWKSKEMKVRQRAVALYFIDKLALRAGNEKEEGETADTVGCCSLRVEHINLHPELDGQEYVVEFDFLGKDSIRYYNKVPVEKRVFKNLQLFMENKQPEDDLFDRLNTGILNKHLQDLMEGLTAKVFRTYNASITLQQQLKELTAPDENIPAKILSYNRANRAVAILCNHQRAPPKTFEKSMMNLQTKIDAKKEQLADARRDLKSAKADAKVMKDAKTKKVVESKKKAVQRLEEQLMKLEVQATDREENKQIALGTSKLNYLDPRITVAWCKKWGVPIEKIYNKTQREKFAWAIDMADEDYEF
- ASSAY PROTOCOL: Inhibition of human topoisomerase 1 assessed as relaxation of supercoiled pBR322 DNA up to 200 uM by agarose gel electrophoresis
Active and inactive are the calls of the source. The calls are words filed in the database; no cut-off is given here.
RECORDED ENDPOINT: Activity

CC1(C)CC[C@]2(C)CC[C@]3(C)C(=CC[C@@H]4[C@@]5(C)CC[C@H](O)[C@](C)(CO)[C@@H]5CC[C@]43C)[C@@H]2C1    inactive
C=C(C)[C@@H]1CC[C@]2(C)CC[C@]3(C)[C@H](CC[C@@H]4[C@@]5(C)CC[C@H](O)C(C)(C)[C@@H]5CC[C@]43C)[C@@H]12    inactive
CC1(C)CC[C@]2(C)C[C@H](O)[C@]3(C)C(=CC[C@@H]4[C@@]5(C)CC[C@H](O)C(C)(C)[C@@H]5CC[C@]43C)[C@@H]2C1    inactive

Every entry's value here was drawn from ChEMBL document CHEMBL1156391.
